# SUBJECT_OF_TEST: T1, recombinant canine β NGF (canine, UniProt Q29074 110-229 (pig entry))
# T1 construct: also called canine NGF
# T1 chain: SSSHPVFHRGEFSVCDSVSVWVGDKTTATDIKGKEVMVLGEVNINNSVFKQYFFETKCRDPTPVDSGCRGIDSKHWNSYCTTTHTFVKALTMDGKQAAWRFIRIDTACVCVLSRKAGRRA
# METHOD_SUMMARY: SPR (Biacore), mAb captured on goat anti-mouse IgG Fc, canine NGF injected; Average
READOUT_KIND: koff (s⁻¹)
Lab book: enter the figure in s⁻¹, no units written.

PR-1254972 (antibody, mouse IgG2b, V domains shown, also called 20B10; ML129-20B10.3F4) VH: EVHLVESGGGLVKPGGFLILSCAASGFTFSDYYMFWIRQTPGKRLEWVATISDGGSYTYYTDNVKGRFTISRDNVKNNLYLQMSHLKSADTAMYYCARDWSDSEGFAYWGQGTLVTVSA VL: DVLMTQTPLSLPVSLGDQASISCRSSQSIVQSNGNTYLEWYLQKPGQSPKLLIYKVSNRFSGVPDRFSGSGSGTDFTLKISRVEAEDLGVYYCFQGSHVPFTFGSGTKLEIKR yielded koff of 0.00318

These data points were gathered from patent US20180362629A1.
